- ASSAY_TARGET: Kv7.2 (Homo sapiens, UniProt O43526)
- Construct: expressed in transfected cells
- PROTOCOL_NOTES: Activation of Kv7.2 (in vitro assay, concentration response curve)
- Format: cell-based
- ASSAY_SETUP: Kv7.2 activation max %
We use 50% as the dividing line for Emax: on or above the line is Y, below is N.

For this molecule, is measured Emax 50% or higher? O=C(NCc1ccnc(CC(F)(F)F)c1)NC12CC(F)(C1)C2 [Example 159]
Y

For this molecule, is measured Emax 50% or higher? Cc1cccc(NC(=O)NC(CO)c2ccnc(OCC(F)(F)F)c2)c1 (stereo not drawn) [Example 233]
Y

----------
- ASSAY_TARGET: Kv7.2 (Homo sapiens, UniProt O43526)
- Construct: expressed in transfected cells
- PROTOCOL_NOTES: Activation of Kv7.2 (in vitro assay, concentration response curve)
- Assay type: cell-based
- ASSAY_SETUP: Kv7.2 activation max %
We use 50% as the dividing line for Emax: on or above the line is 1.0, below is 0.0.

Solved cases below.
>>> print(df.to_string())
                                   compound                          assay_target  discrete_label
0  O=C(NCc1ccnc(C(F)(F)F)c1)NC12CC(F)(C1)C2  Kv7.2 (Homo sapiens, UniProt O43526)             0.0
1  O=C(NCc1ccnc(OCC(F)(F)F)c1)NC12CCC(F)(CC1)CC2  Kv7.2 (Homo sapiens, UniProt O43526)             1.0
2  O=C(NCc1ccnc(OC(F)F)c1)N[C@H](C1CC1)C(F)(F)F  Kv7.2 (Homo sapiens, UniProt O43526)             0.0
3  O=C(NCc1ccnc(OC(F)F)c1)NC(C1CCC1)C(F)(F)F (stereo not drawn)  Kv7.2 (Homo sapiens, UniProt O43526)             1.0
4  O=C(NCc1cc(OC(F)F)ncc1F)N[C@H]1C[C@H](C(F)(F)F)C1  Kv7.2 (Homo sapiens, UniProt O43526)             1.0

For this compound, is measured Emax 50% or higher? O=C(NCc1ccnc(OC(F)F)c1)NC12CCC(F)(CC1)CC2O (stereo not drawn)
0.0

----------
- ASSAY_TARGET: Kv7.2 (Homo sapiens)
- PROTOCOL_NOTES: Activation of Kv7.2 (in vitro assay, concentration response curve)
- ASSAY_SETUP: activation of Kv7.2
Give measured pEC50 for each item. Keep answers brief.
One number for each entry, as −log10 of the molar value.

Recorded pEC50, per entry:
In [3]: df
Out[3]:
                                   molecule  value_kind  result
0  O=C(NCc1ccnc(Br)c1)N[C@H]1C[C@@H]2CC[C@H]1C2 (racemic) [Example 27]       pEC50    5.57
1  O=C(NCc1ccnc(OCC(F)F)c1)N[C@H]1C[C@H](C(F)(F)F)C1 [Example 56]       pEC50    6.47
2  CC1(C)C[C@H](NC(=O)NCc2ccnc(OC(F)F)c2)[C@@H]1O (racemic) [Example 81]       pEC50    5.87
3  O=C(NCc1ccnc(OC(F)F)c1)N[C@H]1C[C@@H]2C[C@H]1[C@H](O)C2 (racemic) [Example 107]       pEC50    5.77
4  O=C(NCc1ccnc(OC(F)F)c1)N[C@@H]1C[C@@H]2[C@H](C1)C2(F)F [Example 169]       pEC50    6.47
5  COC12CC(NC(=O)NCc3ccnc(OC(F)F)c3)(C1)C2 [Example 49]       pEC50    5.74

I'm hoping you can list pEC50 for every molecule here, please.
1. O=C(NCc1ccnc(OC(F)F)c1)N[C@H]1C[C@@H]2CC(F)(F)C[C@@H]2C1 [Example 195]
2. O=C(NCc1ccnc(OC(F)F)c1)Nc1cccc(Cl)c1 [Example 22]
3. O=C(NCc1ccnc(OCC2CCC2)c1)N[C@H]1C[C@H](C(F)(F)F)C1 [Example 54]

[6.54, 7.52, 6.82]

I'm hoping you can list pEC50 for every molecule here, please.
1. O=C(NCc1ccnc(OC(F)F)c1)NC(C1CC1)C1CC1 [Example 253]
2. O=C(NCc1ccnc(OC(F)F)c1)NCC1CC(F)(F)C1 [Example 181]
3. O=C(NCc1ccnc(OC(F)F)c1)N[C@@H]1CCC(F)(F)C[C@H]1O (racemic) [Example 154]
4. O=C(NCc1ccnc(OCC(F)(F)F)c1)NCC1(C(F)(F)F)CC1 [Example 284]
5. O=C(NCc1ccnc(OCC(F)(F)F)c1)NC1CC(C2CC2)C1 (stereo not drawn) [Example 235]
6. CC(NC(=O)NCc1ccnc(OC(F)F)c1)C1CC2CCC1C2 (stereo not drawn) [Example 24]

1: 6.49; 2: 6.18; 3: 5.67; 4: 6.00; 5: 7.10; 6: 7.70

I'm hoping you can list pEC50 for every molecule here, please.
1. O=C(NCc1ccnc(C(F)F)c1)N[C@H]1C[C@@H]2CC[C@H]1C2 (racemic) [Example 35]
2. O=C(NCc1ccnc(OC(F)F)c1)NC(C1CC1)C(F)(F)F (stereo not drawn) [Example 106]

[5.94, 6.09]

O=C(NCc1ccnc(OC(F)F)c1)NCC12CC(C1)C2 [Example 31] yielded pEC50 of 6.38
